Below is a list of entries, each paired with its recorded IC50 value.
systemTested: hDAT (Homo sapiens, UniProt Q01959)
Sequence (Q01959 whole entry): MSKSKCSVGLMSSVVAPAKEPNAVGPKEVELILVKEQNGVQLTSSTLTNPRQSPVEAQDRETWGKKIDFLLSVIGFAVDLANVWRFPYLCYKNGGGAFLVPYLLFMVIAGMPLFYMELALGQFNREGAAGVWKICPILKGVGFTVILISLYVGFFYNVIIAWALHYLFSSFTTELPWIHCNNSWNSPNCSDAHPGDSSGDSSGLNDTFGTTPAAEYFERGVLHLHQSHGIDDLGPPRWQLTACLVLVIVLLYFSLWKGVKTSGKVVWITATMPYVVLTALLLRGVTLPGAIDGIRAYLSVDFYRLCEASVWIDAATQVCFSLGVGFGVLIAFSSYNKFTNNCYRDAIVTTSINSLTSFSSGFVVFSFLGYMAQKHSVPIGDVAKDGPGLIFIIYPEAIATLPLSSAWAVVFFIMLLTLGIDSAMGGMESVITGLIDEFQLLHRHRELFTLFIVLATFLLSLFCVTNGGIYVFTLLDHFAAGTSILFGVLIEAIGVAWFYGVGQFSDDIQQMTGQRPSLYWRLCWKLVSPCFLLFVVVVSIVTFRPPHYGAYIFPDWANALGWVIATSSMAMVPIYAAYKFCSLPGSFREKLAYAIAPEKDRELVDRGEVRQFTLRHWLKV
assayNotes: Inhibition of hDAT-mediated [3H]DA uptake into HEK293-hDAT cells
Field format: number, assumed µM, no unit text.

Answered cases to consult:
CNC(C)C(=O)c1ccccc1C(F)(F)F (stereo not drawn) | 689
CNC(C)C(=O)c1cccc(C(F)(F)F)c1 (stereo not drawn) | 136

# context switch: different molecule, same IC50
Input: Enter measured IC50, system hDAT (Homo sapiens, UniProt Q01959), for the molecule shown: CNC(C)C(=O)c1ccc(C(F)(F)F)cc1 (stereo not drawn)
Output: 200
